- tested_on: T1, CD3 epsilon homodimer protein (UniProt P07766 23-126)
- T1 construct: also called CD3 (CD3 epsilon)
- procedure_text: SPR, antibody over immobilised CD3e homodimer;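 note: SPR at 25 °C with CD3 epsilon homodimer amine-coupled to a CM4 sensor chip and antibody flowed over as analyte in HBS-EP+ running buffer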
Here the recorded KD ratio to GLS3000 is given for each entry.
Output: the number by itself.

binder	experimental_value
CE115HA000/GLS3000 H34P (antibody, IgG1, name in Kabat numbering, V domains shown, one-arm IgG1) VH: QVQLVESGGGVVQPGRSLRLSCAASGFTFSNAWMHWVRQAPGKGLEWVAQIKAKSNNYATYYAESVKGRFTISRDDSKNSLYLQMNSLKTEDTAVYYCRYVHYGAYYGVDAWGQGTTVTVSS VL: DIVMTQSPLSLPVTPGEPASISCRSSQSLVHSNRNTYLPWYQQKPGQAPRLLIYKVSNRFSGVPDRFSGSGSGTDFTLKISRVEAEDVGVYYCGQGTQVPYTFGQGTKLEIK	1.22

IN: # lookup: KD ratio to GLS3000 of CE115HA000/GLS3000 S27eA (antibody, IgG1, name in Kabat numbering, V domains shown, one-arm IgG1) VH: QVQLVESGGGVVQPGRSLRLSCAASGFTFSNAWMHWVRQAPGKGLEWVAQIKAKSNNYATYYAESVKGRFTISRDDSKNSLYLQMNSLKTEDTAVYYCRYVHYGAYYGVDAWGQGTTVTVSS VL: DIVMTQSPLSLPVTPGEPASISCRSSQSLVHANRNTYLHWYQQKPGQAPRLLIYKVSNRFSGVPDRFSGSGSGTDFTLKISRVEAEDVGVYYCGQGTQVPYTFGQGTKLEIK
OUT: 1.01

IN: # lookup: KD ratio to GLS3000 of CE115HA000/GLS3000 N30K (antibody, IgG1, name in Kabat numbering, V domains shown, one-arm IgG1) VH: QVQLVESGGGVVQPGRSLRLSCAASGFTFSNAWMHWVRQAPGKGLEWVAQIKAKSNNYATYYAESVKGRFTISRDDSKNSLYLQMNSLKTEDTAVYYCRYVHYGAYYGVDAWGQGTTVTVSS VL: DIVMTQSPLSLPVTPGEPASISCRSSQSLVHSNRKTYLHWYQQKPGQAPRLLIYKVSNRFSGVPDRFSGSGSGTDFTLKISRVEAEDVGVYYCGQGTQVPYTFGQGTKLEIK
OUT: 1.35
